Test system: leukotriene pathway in human whole blood (LTB4 levels)
assay-info: Human whole blood assay (LTB4)
Type: cell-based
conditions-used: human whole blood diluted 1:1 in RPMI, stimulated with calcium ionophore A23187; single replicate
pIC50: −log10 of the molar value.
Recorded measurements of pIC50, one per entry
observable: pIC50

molecule	observable	quantitative-readout
Cc1ccc(COc2c(C3CCC3)ccc(-c3cnc(N)cn3)c2F)cc1C	pIC50	5.87
N#Cc1ncccc1Oc1c(C2CCC2)ccc(-c2cnc(N)cn2)c1F	pIC50	6.74
CC(C)(C)OC(=O)N1CCCC1COc1c(C2CCC2)ccc(-c2cnc(N)cn2)c1F (stereo not drawn)	pIC50	5.00
Nc1cnc(-c2ccc(C3CCC3)c(Oc3ccc(C(=O)O)cc3)c2F)cn1	pIC50	6.37
COc1cccnc1Oc1c(C2CCC2)ccc(-c2cnc(N)cn2)c1F	pIC50	6.55
Nc1cnc(-c2ccc(C3CCC3)c(OCc3nc(C4CC4)no3)c2F)cn1	pIC50	6.76
Nc1cnc(-c2ccc(C3CCC3)c(Oc3cc(N)nc(Cc4ccccc4)n3)c2F)cn1	pIC50	8.35
COC(=O)c1ccc2oc(COc3c(C4CCC4)ccc(-c4cnc(N)cn4)c3F)nc2c1 [Example 274]	pIC50	6.80
Nc1cnc(-c2ccc(C3CCC3)c(Oc3ncccc3Cl)c2F)cn1	pIC50	6.34
COc1c(C2CCC2)ccc(-c2cnc3[nH]ccc3n2)c1F	pIC50	5.89
COc1cc(Oc2c(C(C)(C)C)ccc(-c3cnc(N)cn3)c2F)ncn1	pIC50	6.77
NC(=O)c1ccnc(Oc2c(C3CCC3)ccc(-c3cnc(N)nc3)c2F)n1	pIC50	6.57
Nc1cnc(-c2ccc(C3CCC3)c(OCc3ccccc3C(=O)O)c2F)cn1	pIC50	5.25
Fc1c(-c2cnc3c(c2)OCCN3)ccc(C2CCC2)c1OCc1ccccc1	pIC50	6.27
Nc1cnc(-c2ccc(C3CCCCC3)c(Oc3ncccn3)c2F)cn1	pIC50	6.78
Nc1cnc(-c2ccc(C3CCC3)c(OCC(O)Cn3ccnc3)c2F)cn1 (racemic)	pIC50	6.16
CN(C)c1cc(Oc2c(C3CCC3)ccc(-c3cnc(N)cn3)c2F)nc(C(F)(F)F)n1	pIC50	7.31
Nc1cnc(-c2ccc(C3CC3)c(Oc3nccc(N)n3)c2F)cn1	pIC50	6.83

====

System: leukotriene pathway in human whole blood (LTB4 levels)
assay-info: Human whole blood assay (LTB4)
Assay type: cell-based
conditions-used: human whole blood diluted 1:1 in RPMI, stimulated with calcium ionophore A23187; single replicate
Description: The ability of the compounds of the present invention to treat a FLAP-mediated disease and/or disorder, or associated symptoms or complications thereof, was determined using the following procedures. Binding assay data represent the average value obtained from two different assay plates, with samples run in duplicate on each plate. Human whole blood assay data represent a single replicate on an assay plate using whole blood from at least one healthy donor. […]

compound	IC50
Nc1cnc(-c2ccc(C3CCC3)c(OCc3cccc(C(=O)O)c3)c2F)cn1 [Example 4]	298 nM
Nc1ccnc(Oc2c(C3CCC3)ccc(-c3cnc(N)nc3)c2F)n1 [Example 161]	88 nM
N#Cc1cnn(CC(O)COc2c(C3CCC3)ccc(-c3cnc(N)cn3)c2F)c1N (racemic) [Example 65]	107 nM
CCc1ccc(-c2cnc(N)cn2)c(F)c1Oc1nccc(N)n1 [Example 317]	464 nM
Nc1cnc(-c2ccc(C3CCC3)c(OCc3cccc(S(F)(F)(F)(F)F)c3)c2F)cn1 [Example 80]	3290 nM
